- Test system: Klebsiella pneumoniae FDA PCI 602
// NB: equality with 0.4 µg/mL counts as no; only MIC strictly below is yes

// known answers, use as guide
                                   compound                        system_name  label_class
0  CN1COc2c(N3CCOCC3)c(F)cc3c(=O)c(C(=O)O)cn1c23  Klebsiella pneumoniae FDA PCI 602           no
1  CN1COc2c(N3CCCNCC3)c(F)cc3c(=O)c(C(=O)O)cn1c23  Klebsiella pneumoniae FDA PCI 602           no
2  CN1COc2c(N3CCC(O)C3)c(F)cc3c(=O)c(C(=O)O)cn1c23 (stereo not shown)  Klebsiella pneumoniae FDA PCI 602           no
3  CN1COc2c(N3CCC(O)CC3)c(F)cc3c(=O)c(C(=O)O)cn1c23  Klebsiella pneumoniae FDA PCI 602           no
4  CN1COc2c(N3CCN(CS(=O)(=O)O)CC3)c(F)cc3c(=O)c(C(=O)O)cn1c23  Klebsiella pneumoniae FDA PCI 602          yes

# check: MIC < 0.4 µg/mL for COC1CCN(c2c(F)cc3c(=O)c(C(=O)O)cn4c3c2OCN4C)C1 (stereo not shown) no

# check: MIC < 0.4 µg/mL for CN1CCN(c2c(F)cc3c(=O)c(C(=O)O)cn4c3c2OC(CO)N4C)CC1 (stereo not shown) no

# credit: patent US4864023A
